Molecular target: recombinant human transglutaminase 2 (Homo sapiens)
Sequence (P21980 1-687): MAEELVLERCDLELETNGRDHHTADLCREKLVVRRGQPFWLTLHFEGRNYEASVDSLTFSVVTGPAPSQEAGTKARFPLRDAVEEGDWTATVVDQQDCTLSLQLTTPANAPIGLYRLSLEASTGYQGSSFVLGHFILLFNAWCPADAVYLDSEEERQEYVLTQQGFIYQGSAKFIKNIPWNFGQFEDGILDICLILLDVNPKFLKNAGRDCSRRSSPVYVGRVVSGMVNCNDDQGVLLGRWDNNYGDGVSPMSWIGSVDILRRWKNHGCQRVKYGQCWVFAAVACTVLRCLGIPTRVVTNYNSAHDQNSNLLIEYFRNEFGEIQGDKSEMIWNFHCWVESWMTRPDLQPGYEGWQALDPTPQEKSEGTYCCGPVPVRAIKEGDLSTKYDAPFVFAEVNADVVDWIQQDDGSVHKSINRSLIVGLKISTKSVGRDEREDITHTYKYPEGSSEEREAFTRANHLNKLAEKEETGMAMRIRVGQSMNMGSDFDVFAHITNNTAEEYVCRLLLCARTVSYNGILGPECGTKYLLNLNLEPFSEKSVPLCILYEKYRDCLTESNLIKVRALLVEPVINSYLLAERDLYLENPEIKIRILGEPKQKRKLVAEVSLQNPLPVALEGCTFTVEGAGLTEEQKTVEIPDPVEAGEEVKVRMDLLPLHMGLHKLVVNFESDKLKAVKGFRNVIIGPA
Experiment: Transglutaminase assay (dansylcadaverine incorporation into dimethylcasein, DCC-assay)
Conditions: recombinant human TG2 10 nM, dansylcadaverine/dimethylcasein, 37° C.
Below is a list of entries, each paired with its recorded IC50 value.
measure.name: IC50

> print(dat)
                                   compound      test.value
1  COC(=O)/C=C/CC[C@H](NC(=O)c1nonc1N)C(=O)Nc1cccn(CC(=O)NC23CC(C2)C3)c1=O  250 to 1500 nM
2  CCCCCNC(=O)/C=C/CC[C@H](NC(=O)c1nc2ccccc2s1)C(=O)Nc1cccn(CC(=O)NC23CC(C2)C3)c1=O    25 to 250 nM
3  COC(=O)/C=C/CC[C@H](NC(=O)c1oc2ccccc2c1C)C(=O)Nc1cccn(CC(=O)NC23CC4CC(CC(Cl)(C4)C2)C3)c1=O         < 25 nM
4  COC(=O)/C=C/CC[C@H](NC(=O)c1sc(C(F)(F)F)nc1C)C(=O)Nc1cccn(CC(=O)N[C@@H]2C[C@@H]3CC[C@H]2C3)c1=O         < 25 nM
5  COC(=O)/C=C/CC[C@H](NC(=O)c1ncn(C)n1)C(=O)Nc1cccn(CC(=O)NC2C3CC4CC(C3)CC2C4)c1=O (stereo partly drawn)    25 to 250 nM
6  COC(=O)/C=C/CC[C@H](NC(=O)c1cnn(C)c1)C(=O)Nc1cccn(CC(=O)NC2C3CC4CC(C3)CC2C4)c1=O (stereo partly drawn)    25 to 250 nM
